# pIC50 per entry
Molecular target: APJ (Homo sapiens)
Construct: expressed in transfected cells; host or cells: CHO (CHO-A10; clone 6 for the cAMP assay)
Sequence (P35414 whole entry): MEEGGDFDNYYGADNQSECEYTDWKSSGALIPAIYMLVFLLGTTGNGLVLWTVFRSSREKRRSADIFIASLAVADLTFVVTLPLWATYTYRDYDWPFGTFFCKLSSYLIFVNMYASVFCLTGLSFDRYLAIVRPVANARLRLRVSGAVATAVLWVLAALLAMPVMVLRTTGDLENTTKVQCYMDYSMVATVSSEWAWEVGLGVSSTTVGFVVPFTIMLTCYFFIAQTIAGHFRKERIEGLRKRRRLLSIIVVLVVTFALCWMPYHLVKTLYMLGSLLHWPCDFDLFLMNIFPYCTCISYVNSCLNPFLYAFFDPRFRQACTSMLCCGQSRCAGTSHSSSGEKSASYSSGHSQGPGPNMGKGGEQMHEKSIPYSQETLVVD
Experiment: Receptor binding assay-2 (compound in Reference Example 2 used)
Conditions: compound in Reference Example 2 used as ligand; read-out: IC50
Non-standard residues stand in square brackets, D forms with d. Residues, ends and D or L forms follow the SMILES beside them. *: point of attachment. Phe(4-Cl) = N[C@@H](Cc1ccc(Cl)cc1)C(=O)O; Cha = N[C@@H](CC1CCCCC1)C(=O)O; Dap = NC[C@H](N)C(=O)O; Hexanoyl = CCCCCC(=O)*
Kindly note that pIC50 refers to -log10 of the concentration in mol/L and answer with the value alone.

compound	pIC50
CCCCCC(=O)NC[C@H](NC(=O)[C@H](CO)NC(=O)[C@H](CC(C)C)NC(=O)[C@H](CCCNC(=N)N)NC(=O)[C@@H]1CCCN1C(=O)[C@@H](N)CCCNC(=N)N)C(=O)N[C@@H](CCCNC(=N)N)C(=O)NCC(=O)N1CCC[C@H]1C(=O)N[C@@H](CC1CCCCC1)C(=O)N1CCC[C@H]1C(=O)N[C@@H](Cc1ccc(Cl)cc1)C(=O)O [Compound in Ex. 67] (H-RPRLS[Dap](Hexanoyl)RGP[Cha]P[Phe(4-Cl)]-OH; N-terminus and C-terminus assumed)	9.35

Consider the record given below.
Qu. Identify measured pIC50 corresponding to `CSCC[C@H](NC(=O)[C@@H]1CCCN1C(=O)CNC(=O)[C@H](CCCCN)NC(=O)[C@H](Cc1c[nH]cn1)NC(=O)[C@H](CO)NC(=O)[C@H](CC(C)C)NC(=O)[C@H](CCCNC(=N)N)NC(=O)[C@@H]1CCCN1C(=O)[C@H](CCCNC(=N)N)NC(=O)[C@H](CCCCNC(=O)[C@H](CCCNC(=N)N)NC(=O)[C@@H](N)CCCNC(=N)N)NC(=O)[C@H](CCCNC(=N)N)NC(=O)[C@@H](N)CCCNC(=N)N)C(=O)N1CCC[C@H]1C(=O)N[C@@H](Cc1ccccc1)C(=O)O`
Ans. 9.08
